These measurements were taken from patent US11325920B2.

System: Staphylococcus aureus USA200
Experiment: MIC assay, S. aureus USA200
MEASURED METRIC: MIC (µg/mL)
One number for each entry, in µg/mL.

# count of solved cases: 3
CC(=O)OC1C(C)C(OC2CC3OCOC3C(C)O2)/C=C/OC2(C)CC(O)c3c(c(C)c(O)c4c3C(=O)C=C(NC(=O)/C(C)=C\C=C\C(C(C)OC(=O)C(C)(C)CC(=O)O)C(O)C(C)C(O)C1C)C4=O)O2 (stereo not shown) | 0.25
CC(=O)OC1C(C)C(OC2CC3OCOC3C(C)O2)/C=C/OC2(C)OC3=C(C)C(=O)c4c(O)c(cc5c4C3=C2OCO5)NC(=O)/C(C)=C\C=C\C(C(C)OC(=O)C(C)(C)CC(=O)O)C(O)C(C)C(O)C1C (stereo not shown) | 2
CC(=O)O[C@@H]1[C@@H](C)[C@@H](O)[C@@H](C)[C@@H](O)[C@@H]([C@@H](C)OC(=O)C(C)(C)CC(=O)O)/C=C/C=C(\C)C(=O)NC2=CC(=O)c3c(c(O)c(C)c4c3C(=O)[C@](C)(O/C=C/[C@H](O[C@@H]3C[C@@H]5OCO[C@@H]5[C@H](C)O3)[C@H]1C)O4)C2=O [Kang A, kanglemycin A, reference compound] | 2.0

MIC reported for this compound CO[C@H]1/C=C/O[C@@]2(C)Oc3c(C)c(O)c4c(O)c(c(/C=N/N5CCN(C)CC5)c(O)c4c3C2=O)NC(=O)/C(C)=C\C=C\[C@H](C)[C@H](O)[C@@H](C)[C@@H](O)[C@@H](C)[C@H](OC(C)=O)[C@@H]1C [Rifampicin, rifampicin, reference compound] : 0.0078
